Where do the numbers come from? From PubChem BioAssay AID1053197.

Biological target: Sialate O-acetylesterase (Homo sapiens)
Test: blockers of sialate O-acetylesterase activity-probe labeling – biochemical, fluorescence polarization, FP-Rh probe, 1536-well HTS, primary screen (AID 1053197);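 further: 0% = plate median of compound wells and 100% = probe without SIAE protein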
Details: SIAE FP-Rh probe binding, at 9.66 µM, hits give high values
In all, about 370,000 compounds went through this assay and about 2,600 (0.7%) were called active. What follows is part of a selection rich in actives, with near analogues and random picks from the rest.
The following compounds are listed with their measured inhibition values.
Quick reminder: number only, in %, skip the unit.

Here's what some known entries look like.
Nc1ccc(C(=O)N/N=C2/CN3CCC2CC3)cc1 | 21.4
CC(C)c1ccc(-n2c(O)c(/C=N/N3CCOCC3)c(=O)[nH]c2=S)cc1 | 24.9

Now examine the next entry.
Query: // query inhibition value for entry `COC(=O)COc1cc(C)cc2oc(=O)c3c(c12)CCCC3`
Result: -2.75
